PROTOCOL_DETAILS: chemical genetic growth profiling, strain panel (AID 1159580);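 further: tested at 20 µM; growth read once vehicle control cultures reached saturation at 30 °C; lower values mean less growth of the strain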
TEST_SETTINGS: S. cerevisiae deletion strains, growth OD, locus YOR069W, strain VPS5
The whole screen tested about 5,500 compounds, of which about 2,000 (36%) were called active. Not shown: some 18% with an inconclusive outcome. No stated cut-off is given here; in the data, active means normalized growth mostly below about 0.91 (no sharp cut-off); inconclusive means no clear call, values can overlap the other calls; inactive means mostly above about 0.92. This is one part of the list.
Labels: active, inactive

INSERT INTO assay_data (molecule, class_label) VALUES
  ('O=c1c(O)c(-c2ccccc2)oc2ccccc12', 'inactive'),
  ('O=C(O)c1cccnc1C(=O)O', 'inactive'),
  ('CC(C)N=C(N)N=C(N)Nc1ccc(Cl)cc1', 'inactive'),
  ('O=C1c2ccccc2C(=O)c2ccccc21', 'inactive'),
  ('O=C1C=CC(=O)c2c(O)cccc21', 'inactive'),
  ('O=C1c2cccc(O)c2C(=O)c2c(O)cccc21', 'active'),
  ('CC(C)C1CCC(C(=O)N[C@@H](Cc2ccccc2)C(=O)O)CC1 (some centres undefined)', 'inactive'),
  ('CC(=O)OCC1=C(C(=O)O)N2C(=O)[C@@H](NC(=O)CSc3ccncc3)[C@H]2SC1', 'inactive'),
  ('CC(C)[C@@H]1CC[C@@H](C)CC1=O', 'inactive');
